FYI, the data here is from patent US8969386B2.

tested on: ΔF508-CFTR (Homo sapiens, UniProt P13569, DEL508-508)
Construct: expressed in transfected cells
Sequence (P13569 with tags, fused parts or gaps DEL508-508): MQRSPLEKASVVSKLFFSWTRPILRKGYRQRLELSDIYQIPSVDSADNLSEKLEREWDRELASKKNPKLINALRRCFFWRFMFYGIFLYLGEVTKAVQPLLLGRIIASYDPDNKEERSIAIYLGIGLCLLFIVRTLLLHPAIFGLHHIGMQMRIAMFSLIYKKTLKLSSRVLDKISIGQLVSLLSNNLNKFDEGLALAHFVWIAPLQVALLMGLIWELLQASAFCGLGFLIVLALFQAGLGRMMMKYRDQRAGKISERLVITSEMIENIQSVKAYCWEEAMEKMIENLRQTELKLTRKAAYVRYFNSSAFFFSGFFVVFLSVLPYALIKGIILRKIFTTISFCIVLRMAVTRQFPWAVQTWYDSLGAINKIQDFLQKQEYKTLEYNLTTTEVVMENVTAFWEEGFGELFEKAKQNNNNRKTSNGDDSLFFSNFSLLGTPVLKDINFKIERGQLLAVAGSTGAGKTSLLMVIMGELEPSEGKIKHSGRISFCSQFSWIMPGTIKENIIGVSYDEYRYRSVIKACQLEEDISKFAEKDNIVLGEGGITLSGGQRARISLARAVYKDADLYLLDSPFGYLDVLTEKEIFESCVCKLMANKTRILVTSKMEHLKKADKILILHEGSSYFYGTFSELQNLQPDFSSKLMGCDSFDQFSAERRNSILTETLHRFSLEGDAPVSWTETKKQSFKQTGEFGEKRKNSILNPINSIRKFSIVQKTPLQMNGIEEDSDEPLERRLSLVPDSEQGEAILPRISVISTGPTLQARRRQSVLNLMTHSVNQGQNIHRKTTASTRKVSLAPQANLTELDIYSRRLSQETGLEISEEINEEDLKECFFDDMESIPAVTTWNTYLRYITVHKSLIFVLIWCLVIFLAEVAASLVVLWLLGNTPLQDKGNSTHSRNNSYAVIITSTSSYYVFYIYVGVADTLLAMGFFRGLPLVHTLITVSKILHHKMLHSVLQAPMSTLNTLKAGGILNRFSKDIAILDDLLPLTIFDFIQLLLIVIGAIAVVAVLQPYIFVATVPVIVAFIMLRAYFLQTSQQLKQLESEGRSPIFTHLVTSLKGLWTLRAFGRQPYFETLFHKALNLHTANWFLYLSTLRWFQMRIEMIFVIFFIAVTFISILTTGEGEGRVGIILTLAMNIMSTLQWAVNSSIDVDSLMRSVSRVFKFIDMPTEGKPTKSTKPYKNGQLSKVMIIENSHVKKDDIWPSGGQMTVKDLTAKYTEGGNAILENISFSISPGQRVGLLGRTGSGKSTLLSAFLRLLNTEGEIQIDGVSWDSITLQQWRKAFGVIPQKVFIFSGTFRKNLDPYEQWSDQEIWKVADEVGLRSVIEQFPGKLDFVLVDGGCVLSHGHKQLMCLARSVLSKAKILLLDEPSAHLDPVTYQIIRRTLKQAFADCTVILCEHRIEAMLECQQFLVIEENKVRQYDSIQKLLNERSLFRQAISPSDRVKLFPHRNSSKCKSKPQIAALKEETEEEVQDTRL
procedure details: ΔF508-CFTR correction, membrane potential optical (FRET/VIPR) assay
Format: cell-based
test settings: NIH3T3 mouse fibroblasts stably expressing ΔF508-CFTR
pEC50: −log10 of the molar value.
property measured: pEC50

chem smiles	pEC50
Cc1ccc(NC(=O)C2(c3ccc4c(c3)OC(F)(F)O4)CC2)nc1-c1ccc(=O)n(CC#N)c1	> 5.70
Cc1cc(NC(=O)C2(c3ccc4c(c3)OC(F)(F)O4)CC2)nc(-c2ccn(CCO)c(=O)c2)c1	> 5.70
CNC(=O)c1cc(-c2nc(NC(=O)C3(c4ccc5c(c4)OC(F)(F)O5)CC3)ccc2C)c[nH]c1=O	5.30 to 5.70
Cc1ccc(NC(=O)C2(c3ccc4c(c3)OC(F)(F)O4)CC2)nc1-c1ccc(=O)[nH]c1	> 5.70

IN: Need pEC50 of `COc1cc(-c2nc(NC(=O)C3(c4ccc5c(c4)OC(F)(F)O5)CC3)cc(C)c2C)ccn1` , thanks.
OUT: > 5.70

IN: Entry `Cc1cc(NC(=O)C2(c3ccc4c(c3)OCC4)CC2)nc(-c2ccc(=O)[nH]c2)c1` has what pEC50?
OUT: > 5.70

IN: Look up pEC50 for this molecule: `COc1ncc(-c2nc(NC(=O)C3(c4ccc5c(c4)OC(F)(F)O5)CC3)ccc2C)cc1C(=O)N(C)C`
OUT: > 5.70

* * *

tested on: ΔF508-CFTR (Homo sapiens, UniProt P13569, DEL508-508)
Construct: expressed in transfected cells
procedure details: ΔF508-CFTR correction, membrane potential optical (FRET/VIPR) assay
Assay type: cell-based
test settings: NIH3T3 mouse fibroblasts stably expressing ΔF508-CFTR; read-out: % Efficacy
From the text: Assays for Detecting and Measuring ΔF508-CFTR Correction Properties of Compounds Membrane potential optical methods for assaying ΔF508-CFTR modulation properties of compounds […] These voltage sensitive assays are based on the change in fluorescence resonant energy transfer (FRET) between the membrane-soluble, voltage-sensitive dye, DiSBAC2(3), and a fluorescent phospholipid, CC2-DMPE, which is attached to the outer leaflet of the plasma membrane and acts as a FRET donor. […]
property measured: Emax

compound	tested on	endpoint result
O=C(Nc1ccc(Cl)c(-c2ccc(=O)[nH]c2)n1)C1(c2ccc3c(c2)OC(F)(F)O3)CC1 [Compound 22]	ΔF508-CFTR (Homo sapiens, UniProt P13569, DEL508-508)	50 to 100%
COc1ccc(-c2cccc(NC(=O)C3(c4ccc5c(c4)OCO5)CC3)n2)cn1 [Compound 94]	ΔF508-CFTR (Homo sapiens, UniProt P13569, DEL508-508)	> 100%

IN: Form entry - test system: ΔF508-CFTR (Homo sapiens, UniProt P13569, DEL508-508); read-out: Emax; compound: Cc1ccc(NC(=O)C2(c3ccc4c(c3)OC(F)(F)O4)CC2)nc1-c1ccc(=O)[nH]c1O [Compound 28]
OUT: 50 to 100%

IN: Field: Emax (ΔF508-CFTR (Homo sapiens, UniProt P13569, DEL508-508)). Entry: COc1ncc(-c2nc(NC(=O)C3(c4ccc5c(c4)OC(F)(F)O5)CC3)ccc2C)cc1Cl [Compound 71]
OUT: > 100%

IN: Hello, I am looking for reported Emax with ΔF508-CFTR (Homo sapiens, UniProt P13569, DEL508-508) for COc1ccc(-c2nc(NC(=O)C3(c4ccc5c(c4)OC(F)(F)O5)CC3)ccc2Cl)cn1 [Compound 24] . Could you help?
OUT: > 100%

IN: // map COc1cc(-c2nc(NC(=O)C3(c4ccc5c(c4)OC(F)(F)O5)CC3)ccc2C)c[nH]c1=O [Compound 21] to recorded Emax (system: ΔF508-CFTR (Homo sapiens, UniProt P13569, DEL508-508))
OUT: 50 to 100%

IN: Under ΔF508-CFTR (Homo sapiens, UniProt P13569, DEL508-508): Emax value of Cc1ccc(NC(=O)C2(c3ccc4c(c3)CCO4)CC2)nc1-c1ccc[nH]c1=O [Compound 84] ?
OUT: 50 to 100%

IN: Give ΔF508-CFTR (Homo sapiens, UniProt P13569, DEL508-508) Emax for COc1ncccc1-c1nc(NC(=O)C2(c3ccc4c(c3)OC(F)(F)O4)CC2)ccc1C [Compound 15]
OUT: > 100%

IN: # get_value(readout= Emax, system= ΔF508-CFTR (Homo sapiens, UniProt P13569, DEL508-508)) for Cc1cc(NC(=O)C2(c3ccc4c(c3)OC(F)(F)O4)CC2)nc(-c2ccc[nH]c2=O)c1C [Compound 66]
OUT: > 100%

* * *

Recorded Emax, one value per entry.
tested on: ΔF508-CFTR (Homo sapiens, UniProt P13569, DEL508-508)
Construct: expressed in transfected cells
procedure details: ΔF508-CFTR correction, membrane potential optical (FRET/VIPR) assay
Assay type: cell-based
test settings: NIH3T3 mouse fibroblasts stably expressing ΔF508-CFTR; read-out: % Efficacy

chem smiles	tested on	endpoint result
Cc1ccc(NC(=O)C2(c3ccc(Cl)cc3)CC2)nc1-c1c[nH]c(=O)c(C)c1	ΔF508-CFTR (Homo sapiens, UniProt P13569, DEL508-508)	50 to 100%
Cc1cc(NC(=O)C2(c3ccc4c(c3)OC(F)(F)O4)CC2)nc(-c2ccc[nH]c2=O)c1	ΔF508-CFTR (Homo sapiens, UniProt P13569, DEL508-508)	> 100%
Cc1cc(=O)[nH]cc1-c1nc(NC(=O)C2(c3ccc4c(c3)OC(F)(F)O4)CC2)cc(C)c1C	ΔF508-CFTR (Homo sapiens, UniProt P13569, DEL508-508)	> 100%
Cc1ccc(NC(=O)C2(c3ccc4c(c3)OCCO4)CC2)nc1-c1c[nH]c(=O)c(C)c1	ΔF508-CFTR (Homo sapiens, UniProt P13569, DEL508-508)	50 to 100%
Cc1c[nH]c(=O)c(-c2nc(NC(=O)C3(c4ccc5c(c4)OC(F)(F)O5)CC3)cc(C)c2C)c1	ΔF508-CFTR (Homo sapiens, UniProt P13569, DEL508-508)	> 100%

IN: # query: Emax of entry `O=C(Nc1cccc(-c2ccc[nH]c2=O)n1)C1(c2ccc3c(c2)OC(F)(F)O3)CC1`
OUT: > 100%

IN: // Emax lookup, key: `Cc1cc(NC(=O)C2(c3ccc4c(c3)OC(F)(F)O4)CC2)nc(-c2cc[nH]c(=O)c2)c1C`
OUT: > 100%

IN: Param item = `COc1ccc(-c2cc(C)cc(NC(=O)C3(c4ccc5c(c4)OC(F)(F)O5)CC3)n2)cn1` ; retrieve measured Emax.
OUT: > 100%

* * *

Overview of recorded Emax for various compounds
tested on: ΔF508-CFTR (Homo sapiens, UniProt P13569, DEL508-508)
Construct: expressed in transfected cells
procedure details: ΔF508-CFTR correction, membrane potential optical (FRET/VIPR) assay
Type: cell-based
test settings: NIH3T3 mouse fibroblasts stably expressing ΔF508-CFTR; read-out: % Efficacy

chem smiles	Emax
Cc1ccc(NC(=O)C2(c3ccc4c(c3)OC(F)(F)O4)CC2)nc1-c1c[nH]c(=O)c(C)c1	> 100%
Cc1ccc(NC(=O)C2(c3ccc4c(c3)CCO4)CC2)nc1-c1ccc(=O)[nH]c1	50 to 100%
Cc1ccc(NC(=O)C2(c3ccc4c(c3)COC4)CC2)nc1-c1c[nH]c(=O)c(C)c1	50 to 100%
Cc1ccc(NC(=O)C2(c3ccc4c(c3)OC(F)(F)O4)CC2)nc1-c1cc(F)c[nH]c1=O	> 100%
Cc1cc(-c2nc(NC(=O)C3(c4ccc5c(c4)OC(F)(F)O5)CC3)ccc2C)cc(=O)[nH]1	> 100%

IN: Reported Emax for ΔF508-CFTR (Homo sapiens, UniProt P13569, DEL508-508), given `COc1cc(-c2nc(NC(=O)C3(c4ccc5c(c4)OC(F)(F)O5)CC3)ccc2C)cnc1OC` ?
OUT: > 100%

IN: Reported Emax for ΔF508-CFTR (Homo sapiens, UniProt P13569, DEL508-508), given `Cc1ccc(NC(=O)C2(c3ccc4c(c3)OC(F)(F)O4)CC2)nc1-c1ccc(=O)n(CC(=O)O)c1` ?
OUT: 50 to 100%

IN: Missing value: Emax, ΔF508-CFTR (Homo sapiens, UniProt P13569, DEL508-508), entry `Cc1ccc(NC(=O)C2(c3ccc4c(c3)OC(F)(F)O4)CC2)nc1-c1cc[nH]c(=O)c1` . Fill in?
OUT: 50 to 100%

* * *

tested on: ΔF508-CFTR (Homo sapiens, UniProt P13569, DEL508-508)
Construct: expressed in transfected cells
procedure details: ΔF508-CFTR correction, membrane potential optical (FRET/VIPR) assay
Format: cell-based
test settings: NIH3T3 mouse fibroblasts stably expressing ΔF508-CFTR; read-out: % Efficacy
property measured: Emax

Example entries and their recorded answers appear below.
molecule	Emax
Cc1cc(NC(=O)C2(c3ccc4c(c3)OC(F)(F)O4)CC2)nc(-c2c[nH]c(=O)c(C)c2)c1C [Compound 111]	> 100%
COc1ncccc1-c1nc(NC(=O)C2(c3ccc4c(c3)CCO4)CC2)cc(C)c1C [Compound 100]	> 100%
COc1ccc(-c2nc(NC(=O)C3(c4ccc5c(c4)OC(F)(F)O5)CC3)cc(C)c2C)cn1 [Compound 57]	> 100%
Cc1ccc(NC(=O)C2(c3ccc4c(c3)OC(F)(F)O4)CC2)nc1-c1c[nH]c(=O)c(C(=O)O)c1 [Compound 23]	50 to 100%
Cc1cc(NC(=O)C2(c3ccc4c(c3)OC(F)(F)O4)CC2)nc(-c2ccc(=O)[nH]c2)c1C#N [Compound 96]	> 100%

IN: Bench note: what Emax did COC(=O)Cn1ccc(-c2nc(NC(=O)C3(c4ccc5c(c4)OC(F)(F)O5)CC3)ccc2C)cc1=O [Compound 16] show?
OUT: 50 to 100%

IN: Looking for the measured Emax of COc1ncc(-c2nc(NC(=O)C3(c4ccc5c(c4)OC(F)(F)O5)CC3)ccc2C)cc1N [Compound 9] , can you help?
OUT: > 100%
